Ref: paper PMC5028085

- system_name: BCRP (Homo sapiens, UniProt Q9UNQ0)
- Sequence (Q9UNQ0 whole entry): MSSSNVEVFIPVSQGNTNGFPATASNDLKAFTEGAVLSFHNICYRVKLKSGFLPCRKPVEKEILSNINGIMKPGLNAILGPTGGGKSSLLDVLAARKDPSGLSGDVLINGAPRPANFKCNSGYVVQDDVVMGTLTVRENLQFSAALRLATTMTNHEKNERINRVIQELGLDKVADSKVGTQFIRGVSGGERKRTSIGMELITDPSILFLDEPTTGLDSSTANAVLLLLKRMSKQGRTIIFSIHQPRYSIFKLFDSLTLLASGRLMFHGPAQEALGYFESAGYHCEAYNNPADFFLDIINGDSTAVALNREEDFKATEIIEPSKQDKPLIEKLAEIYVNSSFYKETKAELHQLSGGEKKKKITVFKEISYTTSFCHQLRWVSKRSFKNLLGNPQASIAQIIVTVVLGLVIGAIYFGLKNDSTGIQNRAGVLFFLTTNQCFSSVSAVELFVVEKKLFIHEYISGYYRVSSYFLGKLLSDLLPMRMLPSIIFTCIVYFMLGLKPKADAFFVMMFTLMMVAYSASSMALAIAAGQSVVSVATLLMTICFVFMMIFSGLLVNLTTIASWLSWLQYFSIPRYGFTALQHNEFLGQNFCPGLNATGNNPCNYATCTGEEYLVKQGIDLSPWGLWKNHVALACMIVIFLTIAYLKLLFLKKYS
- Format: cell-based
- test_parameters: human, MDCK-II-BCRP cell monolayer, probe prazosin (10 µM)
observable: inhibition at 1 h, 0.2 µM (%)
One number for each entry, in %.

Record COc1cccc(CCc2ccccc2OCC(CN(C)C)OC(=O)CCC(=O)O)c1 (racemic) [Sarpogrelate] ; system BCRP (Homo sapiens, UniProt Q9UNQ0); inhibition at 1 h, 0.2 µM = 2.69

* * *

- assay_text: MTT cytotoxicity assay in MDCK-II-P-gp cells
- Format: cell-based, canine
- test_parameters: dog
observable: viability at 1 h, 10 µM

Lookup result for COc1cccc(CCc2ccccc2OCC(CN(C)C)OC(=O)CCC(=O)O)c1 (racemic) [Sarpogrelate] ; measured viability at 1 h, 10 µM: > 97%

* * *

- system_name: BCRP (Homo sapiens, UniProt Q9UNQ0)
- Format: cell-based
- test_parameters: human, MDCK-II-BCRP cell monolayer, probe prazosin (10 µM)
observable: inhibition at 1 h, 2 µM

Lookup result for COc1cccc(CCc2ccccc2OCC(CN(C)C)OC(=O)CCC(=O)O)c1 (racemic) [Sarpogrelate] ; measured inhibition at 1 h, 2 µM: 9.62%

* * *

- assay_text: MTT cytotoxicity assay in MDCK-II-BCRP cells
- Format: cell-based, canine
- test_parameters: dog
observable: viability at 1 h, 10 µM

Lookup result for COc1cccc(CCc2ccccc2OCC(CN(C)C)OC(=O)CCC(=O)O)c1 (racemic) [Sarpogrelate] ; measured viability at 1 h, 10 µM: > 97%

* * *

- system_name: P-gp (Homo sapiens, UniProt P08183)
- Sequence (P08183 whole entry): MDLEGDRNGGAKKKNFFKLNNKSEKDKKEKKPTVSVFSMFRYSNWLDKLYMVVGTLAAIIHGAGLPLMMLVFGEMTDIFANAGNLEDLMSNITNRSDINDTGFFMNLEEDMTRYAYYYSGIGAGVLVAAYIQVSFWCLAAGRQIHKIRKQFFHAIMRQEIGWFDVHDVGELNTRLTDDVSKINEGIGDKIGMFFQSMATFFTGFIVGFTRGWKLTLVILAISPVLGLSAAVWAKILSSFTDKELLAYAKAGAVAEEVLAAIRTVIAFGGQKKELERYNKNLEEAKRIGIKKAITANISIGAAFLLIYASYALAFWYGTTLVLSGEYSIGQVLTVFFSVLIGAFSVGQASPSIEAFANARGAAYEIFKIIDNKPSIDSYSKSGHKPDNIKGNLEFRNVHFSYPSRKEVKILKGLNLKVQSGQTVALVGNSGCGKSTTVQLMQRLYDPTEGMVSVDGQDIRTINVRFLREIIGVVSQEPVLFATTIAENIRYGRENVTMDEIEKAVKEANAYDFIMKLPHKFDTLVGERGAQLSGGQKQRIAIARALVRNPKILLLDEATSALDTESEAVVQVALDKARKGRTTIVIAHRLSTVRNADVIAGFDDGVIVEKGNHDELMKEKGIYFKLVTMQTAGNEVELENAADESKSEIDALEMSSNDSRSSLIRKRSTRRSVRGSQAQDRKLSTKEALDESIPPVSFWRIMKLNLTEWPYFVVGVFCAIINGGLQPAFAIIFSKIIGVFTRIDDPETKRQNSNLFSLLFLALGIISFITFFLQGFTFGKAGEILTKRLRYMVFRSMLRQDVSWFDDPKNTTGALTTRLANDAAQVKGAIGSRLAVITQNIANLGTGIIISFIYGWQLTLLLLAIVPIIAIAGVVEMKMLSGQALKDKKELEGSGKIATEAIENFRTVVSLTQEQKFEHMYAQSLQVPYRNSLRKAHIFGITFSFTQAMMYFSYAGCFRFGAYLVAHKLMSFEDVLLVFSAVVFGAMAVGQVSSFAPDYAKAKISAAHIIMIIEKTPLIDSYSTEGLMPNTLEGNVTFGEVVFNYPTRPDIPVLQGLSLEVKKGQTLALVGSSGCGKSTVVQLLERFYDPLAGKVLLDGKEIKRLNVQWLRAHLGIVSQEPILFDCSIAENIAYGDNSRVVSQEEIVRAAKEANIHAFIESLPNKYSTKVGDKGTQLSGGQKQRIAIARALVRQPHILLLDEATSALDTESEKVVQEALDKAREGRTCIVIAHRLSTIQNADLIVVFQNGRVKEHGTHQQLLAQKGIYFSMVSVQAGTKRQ
- Format: cell-based
- test_parameters: human, MDCK-II-P-gp cell monolayer, probe loperamide (10 µM)
observable: inhibition at 1 h, 2 µM (%)
Give bare numbers, in %.

Lookup result for COc1cccc(CCc2ccccc2OCC(CN(C)C)OC(=O)CCC(=O)O)c1 (racemic) [Sarpogrelate] ; measured inhibition at 1 h, 2 µM: 9.72

* * *

- system_name: P-gp (Homo sapiens, UniProt P08183)
- Assay type: cell-based
- test_parameters: human, MDCK-II-P-gp cell monolayer, probe loperamide (10 µM)
observable: inhibition at 1 h

Lookup result for COc1cccc(CCc2ccccc2OCC(CN(C)C)OC(=O)CCC(=O)O)c1 (racemic) [Sarpogrelate] ; measured inhibition at 1 h: < 10%

* * *

- system_name: P-gp (Homo sapiens, UniProt P08183)
- Format: cell-based
- test_parameters: human, MDCK-II-P-gp cell monolayer, probe loperamide (10 µM)
observable: inhibition at 1 h, 0.2 µM (%)
Answers are plain numbers, in %.

Lookup result for COc1cccc(CCc2ccccc2OCC(CN(C)C)OC(=O)CCC(=O)O)c1 (racemic) [Sarpogrelate] ; measured inhibition at 1 h, 0.2 µM: 9.18
